- measured.target: T1, human VEGF (hVEGF) (human, UniProt P15692 181-395)
- T1 construct: also called VEGF-A
- T1 sequence: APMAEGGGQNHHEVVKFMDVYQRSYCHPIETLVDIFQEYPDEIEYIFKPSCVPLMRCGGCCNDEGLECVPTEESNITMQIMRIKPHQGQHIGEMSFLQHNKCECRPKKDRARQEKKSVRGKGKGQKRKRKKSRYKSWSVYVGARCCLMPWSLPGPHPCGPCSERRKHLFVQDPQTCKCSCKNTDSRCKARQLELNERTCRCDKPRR
- test.details: SPR single-cycle
experimental.endpoint: koff (s⁻¹)
Numbers only; they are read as s⁻¹.

binder	koff [s⁻¹]
G6.31 HC-T73N (Fab, name in Kabat numbering, V domains shown, Fab) VH: EVQLVESGGGLVQPGGSLRLSCAASGFTISDYWIHWVRQAPGKGLEWVAGITPAGGYTYYADSVKGRFTISADNSKNTAYLQMNSLRAEDTAVYYCARFVFFLPYAMDYWGQGTLVTVSS VL: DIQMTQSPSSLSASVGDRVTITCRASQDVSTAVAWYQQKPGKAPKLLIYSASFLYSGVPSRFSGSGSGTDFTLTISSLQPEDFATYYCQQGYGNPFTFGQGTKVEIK	0.000575

Turning to the following binder.
Ask: Which koff reading was recorded for the binder G6.31 LC-Q89N (Fab, V domains shown, Fab) VH: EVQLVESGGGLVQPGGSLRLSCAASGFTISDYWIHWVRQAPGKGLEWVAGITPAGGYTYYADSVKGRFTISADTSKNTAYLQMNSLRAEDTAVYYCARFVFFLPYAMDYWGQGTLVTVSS VL: DIQMTQSPSSLSASVGDRVTITCRASQDVSTAVAWYQQKPGKAPKLLIYSASFLYSGVPSRFSGSGSGTDFTLTISSLQPEDFATYYCNQGYGNPFTFGQGTKVEIK ?
Reply: 0.000435
